molecular target: Hex A (Homo sapiens, UniProt P06865+P07686); assay: Hex A inhibition (IC50 from dose response curves of Hex A residual activity); settings: IC50 (μM), compounds with bracketed IC50; extrapolated from an incomplete dose response curve
Sequence (P06865 89-529): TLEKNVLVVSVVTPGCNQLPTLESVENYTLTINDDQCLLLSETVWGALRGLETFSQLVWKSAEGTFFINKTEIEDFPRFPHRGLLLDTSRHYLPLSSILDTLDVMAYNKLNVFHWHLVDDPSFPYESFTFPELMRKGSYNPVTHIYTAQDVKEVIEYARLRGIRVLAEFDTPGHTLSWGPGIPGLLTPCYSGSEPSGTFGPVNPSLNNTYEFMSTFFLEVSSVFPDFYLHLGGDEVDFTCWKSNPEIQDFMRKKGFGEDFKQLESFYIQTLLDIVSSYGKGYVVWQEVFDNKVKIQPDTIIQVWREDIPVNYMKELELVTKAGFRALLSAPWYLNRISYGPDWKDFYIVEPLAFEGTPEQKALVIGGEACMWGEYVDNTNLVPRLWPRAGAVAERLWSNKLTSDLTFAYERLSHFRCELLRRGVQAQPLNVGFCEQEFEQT
Sequence (P07686 122-311 limits assumed): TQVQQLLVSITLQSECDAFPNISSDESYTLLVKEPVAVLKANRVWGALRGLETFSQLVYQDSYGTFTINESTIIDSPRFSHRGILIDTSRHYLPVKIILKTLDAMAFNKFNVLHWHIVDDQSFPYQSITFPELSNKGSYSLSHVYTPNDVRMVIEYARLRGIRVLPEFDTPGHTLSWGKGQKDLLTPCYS
Sequence (P07686 315-556 limits assumed): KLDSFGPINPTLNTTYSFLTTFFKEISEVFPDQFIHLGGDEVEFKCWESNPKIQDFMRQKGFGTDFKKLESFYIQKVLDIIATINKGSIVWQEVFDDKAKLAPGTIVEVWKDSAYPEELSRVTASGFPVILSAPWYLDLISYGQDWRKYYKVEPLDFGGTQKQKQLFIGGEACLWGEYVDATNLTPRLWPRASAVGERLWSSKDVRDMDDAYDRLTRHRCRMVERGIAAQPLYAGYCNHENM
Checkbox rule: IC50 lower than 1000 µM = True; IC50 not lower than 1000 µM = False.

Examples from the recorded data:
| compound | label.value |
| --- | --- |
| CCC1=C(c2ccc(Cl)cc2)C(N)=NCN1 [vsa8] | True |
| CCCCc1nc(N)nc(N)c1-c1ccc(C)cc1 [zjm1-111] | True |
| Cc1ccc(-c2c(C)nc(N)nc2N)cc1 [ksh3-14c] | False |

In the record for CCc1ncnc(N)c1-c1ccc(C(F)(F)F)cc1 [vsa6] , is IC50 less than 1000 µM?
True

Strictly below 1000 µM: is that where IC50 of Cc1cc(C)cc(-c2c(C)nc(N)nc2N)c1 [ksh3-14e] sits?
False

Is 1000 µM strictly greater than the compound's reported IC50? compound: CCCCc1nc(N)nc(N)c1-c1ccc(OC)cc1 [zjm1-113]
True

I wonder whether Cc1nc(N)nc(N)c1-c1ccccc1 [ksh3-05] has IC50 below 1000 µM. Can you tell?
False

API: query returns whether the compound falls strictly under 1000 µM in IC50. Query: Cc1ccc(-c2c(C)nc(N)nc2N)cc1 [ksh3-14b]
False

I wonder whether CCCCc1nc(N)nc(N)c1-c1ccc(Cl)cc1 [zjm1-91] has IC50 below 1000 µM. Can you tell?
False

Consider the compound Cc1nc(N)nc(N)c1-c1ccc(F)cc1 [ksh3-14a] . Is its IC50 strictly less than 1000 µM?
True

---

molecular target: Hex A (Homo sapiens, UniProt P06865+P07686); experiment: Hex A inhibition (IC50 from dose response curves of Hex A residual activity); details: IC50 (μM ± Err), in brackets, brackets: IC50 extrapolated from an incomplete dose response curve;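 also: remaining Hex A enzyme activity recorded across rising inhibitor doses, with dose response curves run at pH 6.5 and again at pH 4.5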
Listed next: entries and their corresponding IC50.
Respond numerically; units are µM and should not be typed.

Write IC50 of Cc1nc(N)nc(N)c1-c1ccccc1 ; system used: Hex A (Homo sapiens, UniProt P06865+P07686)
1230

Please indicate recorded IC50 of CCC1=C(c2ccc(Cl)cc2)C(N)=NCN1 measured with Hex A (Homo sapiens, UniProt P06865+P07686).
967

Output reported IC50 of the compound Cc1cc(C)cc(-c2c(C)nc(N)nc2N)c1 [ksh3-14e] on Hex A (Homo sapiens, UniProt P06865+P07686).
1230

Write IC50 of CCCc1nc(N)nc(N)c1-c1ccccc1C [ksh3-33c] ; system used: Hex A (Homo sapiens, UniProt P06865+P07686)
825

---

target: mutant Hex A (Homo sapiens, UniProt P06865+P07686); format: cell-based; conditions: maximum increase in Hex A activity relative to untreated cells (=1)
Max Increase vs 2: at or above is true (1), below is false (0).

The examples below pair each entry with its known result.
| compound | label.value |
| --- | --- |
| CCc1nc(N)nc(N)c1-c1ccc(F)cc1 | false (0) |
| CCCc1nc(N)nc(N)c1-c1ccc(C(F)(F)F)cc1 | false (0) |
| CCCc1nc(N)nc(N)c1-c1ccc(OC)cc1 | true (1) |
| CCc1nc(N)nc(N)c1-c1ccsc1 | false (0) |
| CCc1nc(N)nc(N)c1-c1ccccc1 | true (1) |

Confirm if Max Increase reported for the compound CCc1nc(N)nc(N)c1-c1cc(C)cc(C)c1 [ksh3-19e] is 2 or above.
true (1)

Evaluate CCc1nc(N)nc(N)c1-c1cccs1 : Max Increase at minimum 2?
false (0)

Confirm if Max Increase reported for the compound CCc1nc(N)nc(N)c1-c1ccc(C(F)(F)F)cc1 [jts16] is 2 or above.
false (0)

Given the entry CCc1nc(N)nc(N)c1-c1ccccc1C [ksh3-19c] , answer whether its Max Increase meets or surpasses 2.
false (0)

I'd appreciate it if you could say whether NCc1nc(N)nc(N)c1-c1ccc(Cl)cc1 has Max Increase at least equal to 2.
false (0)
